- System: PC-3
- Test Name: NCI tumour cell line growth inhibition, 48 h
Active and inactive are the calls of the source. Cut-off read from the data, not from the text of the source: active = GI50 up to about 1.1 µM and inactive = higher.
Outcome codes: active, inactive

compound=N/C(CCSCCSCC/C(N)=N\O)=N\O target_or_system=PC-3 assigned_category=inactive
compound="CC1N[B@@-](C)(c2ccc(C(F)(F)F)cc2)OC1c1ccccc1 (stereo not given in full)" target_or_system=PC-3 assigned_category=inactive
compound=COc1ccc(-c2csc(-n3c(-c4ccccc4)nc4c(Br)cc(Br)cc4c3=O)n2)cc1 target_or_system=PC-3 assigned_category=inactive
compound=CC(=O)OCc1ccc(O)c(C=O)c1 target_or_system=PC-3 assigned_category=inactive
compound="CC1(C)[C@@H]2C[C@H]1c1cnc(-c3ccccn3)cc1[C@H]2C(O)[C@@H]1c2cc(-c3ccccn3)ncc2[C@H]2C[C@@H]1C2(C)C (stereo not given in full)" target_or_system=PC-3 assigned_category=active
compound=CCOC(=O)c1nc2ccccc2nc1Oc1ccc(C#N)cc1 target_or_system=PC-3 assigned_category=inactive
compound=CN(Cc1cc(Cl)c(Cl)cc1NC(=O)CN)[C@H]1CCCC[C@@H]1N1CCCC1 target_or_system=PC-3 assigned_category=inactive
compound=O=C1c2ccccc2C(=O)c2c(/C=C\N3CCCCC3)ccnc21 target_or_system=PC-3 assigned_category=active
compound=C(=N/Nc1ccc(-c2nc3ccccc3[nH]2)cc1)/c1c(-c2ccccc2)[nH]c2ccccc12 target_or_system=PC-3 assigned_category=active
compound=CC(=O)O[C@H]1C(=O)[C@@]2(C)[C@H]([C@H](OC(=O)c3ccccc3)[C@]3(O)C[C@H](OC(=O)[C@H](O)[C@@H](NC(=O)c4ccccc4)C4CCCCC4)C(C)=C1C3(C)C)[C@]1(OC(C)=O)CO[C@@H]1C[C@@H]2O target_or_system=PC-3 assigned_category=active
compound=COc1ccc2c(=O)c3ccoc3[nH]c2c1 target_or_system=PC-3 assigned_category=inactive
compound=COc1ccc(CN2C(=O)CCC/C=C\[C@H]2CI)cc1 target_or_system=PC-3 assigned_category=inactive
compound=CO[C@]12C[C@H](CNC(=O)c3ccc[nH]3)O[C@H]1NC(=O)N2 target_or_system=PC-3 assigned_category=inactive
compound=CCOC(=O)Cn1nnc2ccc(Nc3nc4ccccc4nc3C(=O)OCC)cc21 target_or_system=PC-3 assigned_category=inactive
compound=Cc1cc(-c2ccc[nH]2)on1 target_or_system=PC-3 assigned_category=inactive
compound=Oc1cc(CN2COc3ccccc32)c(O)cc1CNC1CCCCC1 target_or_system=PC-3 assigned_category=inactive
compound="CCc1cc2c(c3c1CCCC3=O)CC1(Cc3ccc(C(=O)OC)cc3C1)C2 (stereo not given)" target_or_system=PC-3 assigned_category=inactive
compound=CN(C)c1ccc(/C=C(\NC(=O)c2ccccc2)C(=O)NCC(=O)O)cc1 target_or_system=PC-3 assigned_category=inactive
compound=COc1ccc(Br)c(/C=N\c2cccc3cc(OC)c(OC)cc23)c1 target_or_system=PC-3 assigned_category=inactive
compound=NS(=O)(=O)c1ccc(/N=N/c2cnc(O)c(O)c2)cc1 target_or_system=PC-3 assigned_category=inactive

* * *

- System: SF-295
- Test Name: NCI tumour cell line growth inhibition, 48 h
Activity calls are given as the source filed them. Rule as the data show it: active = GI50 up to about 1.1 µM and inactive = higher.
Outcome codes: active, inactive

compound=Nc1nc(NCCCO)cc(=O)[nH]1 assigned_category=inactive
compound=CCOc1ccc(/C=C2/C(=O)N/C(=N\C(C)=O)N2C)cc1 assigned_category=inactive
compound="C#CC(O)/C=C/C(O)CCCC(O)CC#CC(O)C#CC(O)CCCC(O)/C=C/CCCCCC(=O)CCCCCCCCCCCCCC(O)C(O)C#CC(=O)O (centres undefined)" assigned_category=inactive
compound=N#Cc1c(-c2ccc(Cl)cc2)cc(-c2ccc(Nc3ccnc4cc(C(F)(F)F)ccc34)cc2)[nH]c1=O assigned_category=inactive
compound=Cc1ccc(NCCN(C)C)c2c(=O)c3cc(O)ccc3oc12 assigned_category=inactive
compound="CC(=O)O[C@H]1C(=O)[C@@]2(C)[C@H]([C@H](OC(=O)c3ccccc3)[C@]3(O)C[C@H](OC(=O)[C@H](O)[C@@H](NC(=O)C(C)(O)C(C)O)c4ccccc4)C(C)=C1C3(C)C)[C@]1(OC(C)=O)CO[C@@H]1C[C@@H]2O (some centres undefined)" assigned_category=inactive
compound="O=[N+]([O-])c1ccc(C[S+]([O-])Cc2ccccc2)cc1 (centres undefined)" assigned_category=inactive
compound=Cc1cccc(/N=C/c2ccc(N(CCC#N)S(=O)(=O)c3ccccc3)cc2C)c1 assigned_category=inactive
compound="COc1cc([C@@H]2c3cc4c(cc3[C@@H](NC(=O)c3ccccc3)C3COC(=O)[C@@H]32)OCO4)cc(OC)c1O (some centres undefined)" assigned_category=inactive
compound="CC(=S)NC1C(Oc2ccc3c(C)cc(=O)oc3c2)OC(CO)C(O)C1O (centres undefined)" assigned_category=inactive
compound=COc1ccc2c(c1)c(=O)c1c(NCCN(C)C)ccc3nnn2c31 assigned_category=inactive
compound=COc1cc(Br)c(OC)c2c(OC)cc(C)cc12 assigned_category=inactive
compound=O=C1C=CC2(C=C1)CCNC1=C2C(=O)c2ccccc2C1=O assigned_category=inactive
compound="COC1OC(C)C2OC(C)(C)OC2C1OC(C)=O (centres undefined)" assigned_category=inactive
compound=Cc1cc(-c2nc3ccccc3s2)ccc1NS(=O)(=O)O assigned_category=inactive
compound=CC(C)N(c1cc2c(cc1F)c(=O)c(C(=O)O)cn2-c1ccc(N2CCN(C)CC2)cn1)C(C)C assigned_category=inactive
compound=Cc1ccc2nc3c(C(=O)NCCN(C)C)cccc3nc2c1 assigned_category=inactive
compound=CN1C(=O)[C@@]2(C=CC3(CC2)OCCO3)c2ccccc21 assigned_category=inactive
compound=OCCOCCO[P+]1(OCCOCCO)n2c3ccc2C(c2ccccc2)=C2C=CC(=N2)C(c2ccccc2)=c2ccc(n21)=C(c1ccccc1)C1=NC(=C3c2ccccc2)C=C1 assigned_category=active

* * *

- Test system: HT-29
- Test Name: NCI tumour cell line growth inhibition, 48 h
Calls of active or inactive are those of the source. Cut-off read from the data, not from the text of the source: active = GI50 up to about 1.1 µM and inactive = higher.
Outcome codes: class 1 for active, class 0 for inactive

smiles_string=CC(=O)O[C@H]1C(=O)[C@@]2(C)[C@H]([C@H](OC(=O)c3ccccc3)[C@]3(O)C[C@H](OC(=O)[C@H](O)[C@@H](NC(=O)c4ccccc4)C4CCCCC4)C(C)=C1C3(C)C)[C@]1(OC(C)=O)CO[C@@H]1C[C@@H]2O assigned_category="class 1"
smiles_string=N#Cc1sc2c(c1OC(=O)c1ccccc1)c(=O)n(-c1ccccc1)c(=S)n2-c1ccccc1 assigned_category="class 0"
smiles_string=O=C1C(Cl)=C(NCCF)C(=O)c2ncccc21 assigned_category="class 0"
smiles_string=O=C(CCCN1CCC2(CC1)CC(=O)N(N1CCCCCC1)C2=O)c1ccccc1 assigned_category="class 0"

* * *

- Test system: MOLT-4
- Test Name: NCI tumour cell line growth inhibition, 48 h
Active and inactive are the calls of the source. No stated cut-off is given here; in the data, active = GI50 up to about 1.1 µM and inactive = higher.
Endpoint Name: GI50

molecule="COC1C=COC2(C)Oc3c(C)c(O)c4c(O)c(c(C5SCCS5)c(O)c4c3C2=O)NC(=O)C(C)=C/C=C\\C(C)C2OC(C)(C)OC(C2C)C(C)C(OC(C)=O)C1C (centres undefined)" endpoint_name=GI50 experimental_result="3.83 µM (inactive)"
molecule=CCOC(=O)C(=[N+]=[N-])C(=O)CN1C(=O)c2ccccc2C1=O endpoint_name=GI50 experimental_result="> 100 µM (inactive)"
molecule=CCOC(=O)C(C)(C)Oc1ccc2c(C)c(-c3ccc(Cl)cc3)c(=O)oc2c1 endpoint_name=GI50 experimental_result="20 µM (inactive)"
molecule=c1ccc(CSc2nc(N3CCCCC3)c3cn[nH]c3n2)cc1 endpoint_name=GI50 experimental_result="49.1 µM (inactive)"
molecule="OC1CC2CCC(C1)N2CCCN1c2ccccc2Sc2ccc(Cl)cc21 (centres undefined)" endpoint_name=GI50 experimental_result="2.29 µM (inactive)"
molecule=O=c1c(Cc2c(O)oc3cc(O)ccc3c2=O)c(O)oc2cc(O)ccc12 endpoint_name=GI50 experimental_result="> 100 µM (inactive)"
molecule=O=C1c2ccccc2C(=O)c2c(/C=C\N3CCCCC3)ccnc21 endpoint_name=GI50 experimental_result="6.84 µM (inactive)"
molecule="COc1ccc(OC)c(NC(=O)C(=O)C(C(=O)c2ccccc2F)C2OC(=O)c3ccccc32)c1 (centres undefined)" endpoint_name=GI50 experimental_result="26.3 µM (inactive)"
molecule=O=C(Cc1ccccc1)NCCCN(CCCCN(CCCNC(=O)Cc1ccccc1)C(=O)OCc1ccccc1)C(=O)OCc1ccccc1 endpoint_name=GI50 experimental_result="4.49 µM (inactive)"

* * *

- System: MCF7
- Test Name: NCI tumour cell line growth inhibition, 48 h
Calls of active or inactive are those of the source. No stated cut-off is given here; in the data, active = GI50 up to about 1.1 µM and inactive = higher.
Outcome codes: true = active, false = inactive

compound=N=C(N)N/N=C/c1c(-c2ccc(Cl)c([N+](=O)[O-])c2)nc2sccn12 target_or_system=MCF7 assigned_category=false
compound=COc1ccc(/N=C2\C(=O)C3=C(OC(C)(C)CC3)c3ccccc32)cc1 target_or_system=MCF7 assigned_category=true
compound="COC1C=COC2(C)Oc3c(C)c(O)c4c(O)c(c(C5SCCS5)c(O)c4c3C2=O)NC(=O)C(C)=C/C=C\\C(C)C2OC(C)(C)OC(C2C)C(C)C(OC(C)=O)C1C (stereo unspecified)" target_or_system=MCF7 assigned_category=false
compound=COc1cccc(N2CCc3c(C)c(C#N)c4nc5ccccc5n4c32)c1 target_or_system=MCF7 assigned_category=false
compound=CO[C@]12C[C@H](CNC(=O)c3ccc[nH]3)O[C@H]1NC(=O)N2 target_or_system=MCF7 assigned_category=false
compound=COc1cccc(C(=O)Nc2c3ccccc3nc3ccccc23)c1OC target_or_system=MCF7 assigned_category=false
compound=CNC(=S)N/N=C(\C(=N/NC(=S)NC)c1ccccn1)c1ccccn1 target_or_system=MCF7 assigned_category=true
compound="COP1(=O)OCc2cnccc2O1 (stereo unspecified)" target_or_system=MCF7 assigned_category=false
compound="CC1=C2c3ccccc3N(S(=O)(=O)c3ccccc3)[C@H]2[C@H](C(=O)N2C3CC4CC[C@@]3(CS2(=O)=O)C4(C)C)CC1 (stereo partly specified)" target_or_system=MCF7 assigned_category=false
compound=CCN(CC)C(=O)N1CN(c2ccccc2)C2(CCN(CCCSc3ccc(F)cc3)CC2)C1=O target_or_system=MCF7 assigned_category=false
compound=O=c1[nH]c2c(C(F)(F)F)c(Cl)c(-c3ccccc3)nc2o1 target_or_system=MCF7 assigned_category=false
compound="CC(=O)OC1OC(c2ccoc2)C[C@@]12C1CCC3O[C@]3(C)[C@]1(C)[C@H](OC(C)=O)[C@H](OC(C)=O)[C@H]2C (stereo partly specified)" target_or_system=MCF7 assigned_category=false
compound="O=[N+]([O-])c1ccc(C[S+]([O-])Cc2ccccc2)cc1 (stereo unspecified)" target_or_system=MCF7 assigned_category=false
compound=Cc1c(C)c2c(c(N)c1C#N)C(=O)N(O)C2=O target_or_system=MCF7 assigned_category=false
compound=Oc1cccnc1CN1CCCCC1 target_or_system=MCF7 assigned_category=false
compound=COc1ccc(/C(=N/N=c2[nH]c3ccccc3[nH]2)C(=O)O)cc1 target_or_system=MCF7 assigned_category=false
compound=O=C(O)CSc1ccccc1C(=O)O target_or_system=MCF7 assigned_category=false
compound=COc1ccc([C@H]2[C@H]3COC(=O)[C@H]3C(C#N)=C3Sc4ccccc4N32)cc1 target_or_system=MCF7 assigned_category=false
compound=CCOC(=O)Cn1nnc2ccc(Nc3nc4ccccc4nc3C(=O)OCC)cc21 target_or_system=MCF7 assigned_category=false
compound=COc1ccc2c(=O)c3ccoc3[nH]c2c1 target_or_system=MCF7 assigned_category=false
compound=CC1=NN2C(=N)/C(=C/c3ccccc3)C(=O)N=C2S1 target_or_system=MCF7 assigned_category=true

Source: ChEMBL document CHEMBL1201862
